Test system: RXF 393 renal
Experiment: NCI tumour cell line growth inhibition, 48 h
Below is a list of entries, each paired with its recorded TGI value.
REPORTED PROPERTY: TGI

1. O=[N+]([O-])c1ccc(Cl)c2c([N+](=O)[O-])cccc12    > 10 µM
2. O=c1ccc2ccc(S)cc2o1    > 100 µM
3. N#C/C(=C\c1cc(OCc2ccccc2)c(OCc2ccccc2)cn1)C(N)=O    > 100 µM
4. O=[N+]([O-])c1ccc(C[P+]2(c3ccccc3)CCCCC2)cc1    > 100 µM
5. O=C1NC2=C(CCCCC/C2=N\O)C12CCCCCC2    > 100 µM
6. Cc1nc2ccccc2nc1CC(=O)C(=O)Nc1ccc(Cl)cc1Cl    > 100 µM
7. C[C@@H]1CC[C@@]2(C)C(C(=O)O)=CCCC2[C@@]1(C)CC(=O)c1ccoc1 (stereo partly drawn)    > 25 µM
8. O=C(/C=C/c1ccc(Cl)cc1)Oc1ccc(C=C2CCC/C(=C\c3ccc(OC(=O)/C=C/c4ccc(Cl)cc4)cc3)C2=O)cc1    > 100 µM
9. CN(O)C(=O)/C=C/c1ccc(OCc2cccc(Cl)c2)cc1    > 100 µM
10. CC1=N/C(=C\c2ccc(/C=C3/N=C(C)OC3=O)cc2)C(=O)O1    > 100 µM
11. CN(C)CCN(c1ccccn1)c1ccccn1    > 100 µM
12. CC(=O)O[C@@H](c1nccn1Cc1ccccc1)[C@H]1OC(C)(C)O[C@@H]1[C@H]1COC(C)(C)O1    > 100 µM
13. COCOc1ccc(C(=O)Oc2cccc3c2OC(C)(C)O3)c(OCOC)c1    > 100 µM
14. CCOC(=O)c1c(N2CCCC2)[nH]c(=O)c(C(c2ccc(OC)cc2)c2c(O)c(C(=O)OCC)c(N3CCCC3)[nH]c2=O)c1O    > 100 µM
15. COc1cc(C)c(CC/C(C)=C/Cc2cc(O)ccc2O)c(C)c1C    > 25 µM
16. Cc1nnc2n(c1=O)CCCN2C    > 100 µM
17. Cc1nc(N)nc(CCC(=O)Nc2cccc(C(F)(F)F)c2)c1-c1ccc(Cl)cc1    > 100 µM
18. Cc1ccc2c(c1C)C(=O)C1(Cc3cc4c(cc3C1=O)CCC4)C2 (stereo not drawn)    > 100 µM
19. O=C(O)c1nc2ccc(C(F)(F)F)cc2[nH]c1=O    > 100 µM
20. O=C1NC(=N[C@@H](CO)c2ccccc2)S/C1=C\c1ccc2ncccc2c1    > 25 µM
21. C[C@]12Cc3cn[nH]c3C(=O)C1CC[C@@H]1C2CC[C@@]2(C)C1CC[C@@H]2O (stereo partly drawn)    > 100 µM
22. Cc1ccc2c(-c3ccnc(Nc4ccc5c(c4)OCCO5)n3)c(-c3ccc(C(F)(F)F)cc3)nn2n1    > 25 µM
23. O=c1c(F)cn2c(=O)n1CCCCCCCn1c(=O)c(F)cn(c1=O)CCCCCCC2    > 100 µM

* * *

Here, each record is paired with measured TGI data.
Tested on: SF-295 CNS
Assay: NCI tumour cell line growth inhibition, 48 h
REPORTED PROPERTY: TGI

1) c1c[nH]c(-c2cccc3nsnc23)c1    > 100 µM
2) c1ccc(-c2[nH]ncc2-c2ccnc(-c3ccc(OCCn4ccnc4)cc3)c2)nc1    > 25 µM
3) COC(=O)/C=C(/C=C1/C(C#N)=C(N)N(c2ccc(Cl)cc2)C1(C)/C(=C\C(=O)OC)C(=O)OC)C(=O)OC (stereo not given)    > 100 µM
4) Cc1ccc2c(c1C)C(=O)C1(Cc3cc4c(cc3C1=O)CCC4)C2 (stereo not given)    > 100 µM
5) COc1ccc2ccc3oc(=O)c(C)cc3c2c1    > 100 µM

* * *

System: MDA-MB-231 breast
Assay: NCI tumour cell line growth inhibition, 48 h
Recorded TGI, one value per entry.
REPORTED PROPERTY: TGI

1. Cn1c2ccccc2c2ccc3c(c21)C(=O)c1ccc2c4ccccc4n(C)c2c1C3=O    > 100 µM
2. O=C1NN(C2=NNC3(C(=O)N2)c2ccccc2-c2ccccc23)C(c2ccccc2)=N/C1=C/c1ccc(Cl)cc1    > 150 µg/mL
3. O=C(COc1ccc(OCC(=O)N/N=C/c2ccc(-c3ccc(Cl)cc3Cl)o2)c(Cl)c1)N/N=C/c1ccc(-c2ccc(Cl)cc2Cl)o1    > 100 µM
4. COC1N(C2CC(O)C(CO)O2)C(=O)NC(=O)C1(F)Br (stereo not given)    > 100 µM
5. O=C(CC(NC(=O)C(F)(F)F)C(=O)O)OCc1ccccc1 (stereo not given)    > 100 µM

* * *

Tested on: BT-549 breast
Assay: NCI tumour cell line growth inhibition, 48 h
Recorded TGI values for a group of molecules are listed next.
REPORTED PROPERTY: TGI

1. c1ccc(C2=NC3OC2c2ccccc23)cc1 (centres undefined)    > 10 µM
2. COc1ccc2nc(NC(=O)/C(C#N)=C/c3ccccc3)sc2c1    > 100 µM
3. CC1=C(C(=O)Nc2ccccc2)C(c2ccc(N(C)C)cc2)C(C(=O)Nc2ccccc2)=C(C)N1    > 88.3 µM
4. CC(C)(CO)CNC(=O)c1ccc2[nH]c(O)c(N=Nc3ccc(S(N)(=O)=O)cc3)c2c1    > 25 µM

* * *

GI50 data for MDA-MB-435 follow.
REPORTED PROPERTY: GI50

1) COc1cc2c(N3CCN(C(=O)Nc4ccc(OC(C)C)cc4)CC3)ncnc2cc1OCCCN1CCCCC1    13.8 µM
2) FC(F)(F)Oc1cccc(-c2cc(NCCCCCCNc3cc(-c4cccc(OC(F)(F)F)c4)nc4ccc(N5CCCC5)cc34)c3cc(N4CCCC4)ccc3n2)c1    1.82 µM
3) c1ccc(-c2[nH]ncc2-c2ccnc(-c3ccc(OCCn4ccnc4)cc3)c2)nc1    24.5 µM

* * *

Test system: NCI-H460 lung
Assay: NCI tumour cell line growth inhibition, 48 h
REPORTED PROPERTY: TGI

1. CCOC(=O)c1c(N2CCCC2)[nH]c(=O)c(C(c2ccc(OC)cc2)c2c(O)c(C(=O)OCC)c(N3CCCC3)[nH]c2=O)c1O    > 100 µM
2. Cc1ccc(O)cc1Nc1ccnc2ccc(S(C)(=O)=O)cc12    > 25 µM
3. CC(C)C(Br)CCC1=CCC(Br)(Br)C1 (stereo unspecified)    31.7 µM
4. CC1(C)OC[C@@H]([C@@]2(CO[Si](c3ccccc3)(c3ccccc3)C(C)(C)C)CC=CC(=O)O2)O1    > 100 µM
5. COCC([C@@H](O)C(O)C(=O)NCC[C@@H](C)c1nc(/C=C/CC2OC3(C[C@H](O)C2C)OC(C(C[C@H](O)C(C)[C@H](O)C(C)/C=C(C)/C(C)=C/C=C/C(C)=C/C#N)OC)[C@@H](OP(=O)(O)O)C3(C)C)co1)N(C)C (stereo partly specified)    0.000272 µM
6. N#CNC(N)=NCc1ccccc1    > 100 µM
7. O=c1oc2ccc3ccccc3c2cc1-c1cn2ccsc2n1    > 100 µM
8. c1ccc2c(c1)SCCCS2    > 100 µM
9. Nc1ncnc2c1nnn2C1C=CC(CP(=O)(O)O)C1 (stereo unspecified)    > 100 µM
10. COC(=O)OC1C(O[C@H]2C[C@H]3[C@@H]4CC=C5C[C@@H](O)CC[C@]5(C)[C@H]4CC[C@]3(C)[C@H]2[C@H](C)C(=O)CCC(C)C)OCC(O)C1OC1OCC(O)C(O)C1OC(=O)c1ccc(OC)cc1 (stereo partly specified)    0.332 µM
11. COC(=O)c1ccccc1C1CN=NC12Cc1c(ccc(C)c1C)C2=O (stereo unspecified)    > 100 µM
12. CCN(CC)CCCNc1ccc(C)c2sc3ccccc3c(=O)c12    1.71 µM
13. O=C1NN(C2=NNC3(C(=O)N2)c2ccccc2-c2ccccc23)C(c2ccccc2)=N/C1=C/c1ccc(Cl)cc1    > 150 µg/mL
14. CN(/N=C1\C(=O)Nc2ccccc21)c1ccccc1    > 100 µM
15. O=[N+]([O-])c1ccccc1C1SCc2nc3ccccc3n21 (stereo unspecified)    > 100 µM
16. O=c1[nH]c(NCc2ccncc2)nc2nc[nH]c12    > 100 µM
17. CC(Br)C(=O)NC(CO)C(=O)O (stereo unspecified)    > 100 µM
18. C[C@@H]1CC[C@@]2(C)C(C(=O)O)=CCCC2[C@@]1(C)CC(=O)c1ccoc1 (stereo partly specified)    > 25 µM
19. COc1ccc(C2Oc3ccc(Cl)cc3C=C2[N+](=O)[O-])cc1 (stereo unspecified)    > 100 µM
20. CSC1=Nc2c(c(C)c(C)n2COC(CO)CO)C2=NC(=O)CN12    > 100 µM
21. COC(=O)[C@]1(C)CCC[C@@]2(C)C1CC[C@]13C=C(C(C)C)[C@H](CC21)CC3(Cl)C#N (stereo partly specified)    > 100 µM
22. COc1ccc2c(c1)c(-c1nc(-c3c[nH]c4ncccc34)cs1)cn2CCCN1CCOCC1    6.6 µM
23. COc1ccc(C(=O)c2cc(OC)c(OC)c(OC)c2OC)cc1O    > 100 µM
24. COC(=O)C(Cc1cn(C(C)n2cc(CC(NC(C)=O)C(=O)OC)c3ccccc32)c2ccccc12)NC(C)=O (stereo unspecified)    > 100 µM
25. COC(=O)CC(=O)OSc1ccccc1    > 100 µM
26. CC(=O)NNc1nc(C)c(C(=O)NNC(=O)C(=O)Nc2ccc([N+](=O)[O-])cc2[N+](=O)[O-])s1    > 100 µM
27. COc1ccc(OC)c(NCC(=O)n2nc(/C=C\c3ccc(O)c(OC)c3)cc2/C=C\c2ccc(O)c(OC)c2)c1    9.84 µM
28. Nc1ncc(Cc2ccc3c(c2)OCO3)c(N)n1    > 100 µM
29. COc1cc(Nc2cnc3ccc(C(F)(F)F)cc3n2)cc(OC)c1OC    > 100 µM
30. Cn1nc(-c2ccc(S(=O)(=O)/N=C(\NN)Nc3ccc(Cl)cc3)s2)cc1C(F)(F)F    37.9 µM
31. COc1ccc2c(c1)c1c(n2CCN2CCCCC2)-c2cccc(OC)c2CC1    55.9 µM
32. CCCCCCN(CCCCCC)C(=S)N/N=C(\C)c1ccccn1    2.97 µM
33. CN1CSC(=S)N(c2cccc(C(F)(F)F)c2)C1    42.6 µM
34. O=C1/C(=C/c2ccc(Cl)c(Cl)c2)CN(C(=O)CCN2CCC(=NO)CC2)C/C1=C\c1ccc(Cl)c(Cl)c1    2.57 µM
35. Cc1nc(N)nc(CCC(=O)Nc2cccc(C(F)(F)F)c2)c1-c1ccc(Cl)cc1    > 100 µM
36. O=C(OCc1ccc2c(Br)cc(Br)c(O)c2n1)c1cc2ccccc2[nH]1    3.33 µM
